Values were extracted from patent US20250281424A1.

- measured_target: human PF4 (Homo sapiens, UniProt P02776)
- Construct: PF4 is a 70 amino acid, lysine-rich 7.8 kDa platelet-specific protein; made in house; host or cells: Escherichia coli BL21DE3 pLysS (pT7-7) and/or Drosophila S2 cells
- Sequence (P02776 32-101): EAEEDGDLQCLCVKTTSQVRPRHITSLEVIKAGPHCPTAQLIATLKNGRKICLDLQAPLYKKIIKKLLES
- experiment_summary: Inhibition of PF4 tetramer formation (BS3 cross-linking, SDS-PAGE)
- Format: biochemical
- setup_conditions: 3 μM inhibitor (column A); read-out: % inhibition of PF4 tetramer formation at single concentration of inhibitor
Use 1 when the recorded inhibition at 3 µM is no lower than 50%; use -1 when it is lower.

compound	class
CC(C)(C)OC(=O)N1CC[C@H](C(=O)C2C(=O)c3ccc(C(=O)c4ccc5c(c4)C(=O)C(C(=O)[C@H]4CCN(C(=O)OC(C)(C)C)C4)C5=O)cc3C2=O)C1 (some centres unmarked)	-1
CC(=O)OC[C@H]1O[C@@H](OC(C)=O)[C@H](NC(=O)C2C(=O)c3ccc(S(=O)(=O)c4ccc5c(c4)C(=O)C(C(=O)N[C@H]4[C@H](OC(C)=O)O[C@H](COC(C)=O)[C@@H](OC(C)=O)[C@@H]4OC(C)=O)C5=O)cc3C2=O)[C@@H](OC(C)=O)[C@@H]1OC(C)=O (some centres unmarked)	-1
CC(C)(C)OC(=O)N1CCCC[C@@H]1C(=O)C1C(=O)c2ccc(Oc3ccc4c(c3)C(=O)C(C(=O)[C@H]3CCCCN3C(=O)OC(C)(C)C)C4=O)cc2C1=O (some centres unmarked)	1
COC(=O)[C@H]1CCCC[C@H]1C(=O)C1C(=O)c2ccc(S(=O)(=O)c3ccc4c(c3)C(=O)C(C(=O)[C@@H]3CCCC[C@@H]3C(=O)OC)C4=O)cc2C1=O (some centres unmarked)	-1
CC(C)OCC(=O)C1C(=O)c2ccc(Oc3ccc4c(c3)C(=O)C(C(=O)COC(C)C)C4=O)cc2C1=O (centres unmarked)	1

Kindly consider the entry below.
Query: Is reported inhibition at 3 µM greater than or equal to 50% here: CC[C@H](C)[C@H](NC(=O)OC(C)(C)C)C(=O)C1C(=O)c2ccc(S(=O)(=O)c3ccc4c(c3)C(=O)C(C(=O)[C@@H](NC(=O)OC(C)(C)C)[C@@H](C)CC)C4=O)cc2C1=O (some centres unmarked)
Reply: -1

* * *

- measured_target: human PF4 (Homo sapiens, UniProt P02776)
- Construct: PF4 is a 70 amino acid, lysine-rich 7.8 kDa platelet-specific protein; made in house; host or cells: Escherichia coli BL21DE3 pLysS (pT7-7) and/or Drosophila S2 cells
- Sequence (P02776 32-101): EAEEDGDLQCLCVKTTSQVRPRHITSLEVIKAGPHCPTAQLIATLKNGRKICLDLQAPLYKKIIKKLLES
- experiment_summary: Inhibition of PF4 tetramer formation (BS3 cross-linking, SDS-PAGE)
- Type: biochemical
- setup_conditions: 5 μM inhibitor; read-out: % inhibition of PF4 tetramer formation at single concentration of inhibitor
Assignment: determine reported inhibition at 5 µM for the given compounds.
Answers are plain numbers, in %.

compound	inhibition at 5 µM (%)
CC(C)(C)OC(=O)NCCC(=O)C1C(=O)c2ccc(S(=O)(=O)c3ccc4c(c3)C(=O)C(C(=O)CCNC(=O)OC(C)(C)C)C4=O)cc2C1=O (stereo not drawn) [Example 164]	70

I would be grateful if you could provide inhibition at 5 µM for each of the following entries.
1. CC(C)(C)OC(=O)N[C@@H](Cc1ccccc1)C(=O)C1C(=O)c2ccc(C(=O)c3ccc4c(c3)C(=O)C(C(=O)[C@H](Cc3ccccc3)NC(=O)OC(C)(C)C)C4=O)cc2C1=O (stereo partly drawn) [Example 157]
2. O=C(c1ccc2c(c1)C(=O)C(C(=O)[C@@H]1CCCN1C(=O)OCc1ccccc1)C2=O)c1ccc2c(c1)C(=O)C(C(=O)[C@@H]1CCCN1C(=O)OCc1ccccc1)C2=O (stereo partly drawn) [Example 125]
3. Cc1cccc(NC(=O)C2C(=O)c3ccc(C(=O)c4ccc5c(c4)C(=O)C(C(=O)Nc4cccc(C)c4)C5=O)cc3C2=O)c1 (stereo not drawn) [Example 38]

Reply:
1: 100; 2: 87; 3: 74

Working through the 5 compounds below one at a time, give inhibition at 5 µM for each.
1. O=C(O)CCNC(=O)C1C(=O)c2ccc(C(=O)c3ccc4c(c3)C(=O)C(C(=O)NCCC(=O)O)C4=O)cc2C1=O (stereo not drawn) [Example 32]
2. C[C@H](NC(=O)OC(C)(C)C)C(=O)C1C(=O)c2ccc(S(=O)(=O)c3ccc4c(c3)C(=O)C(C(=O)[C@H](C)NC(=O)OC(C)(C)C)C4=O)cc2C1=O (stereo partly drawn) [Example 180]
3. O=C1CC(=O)c2cc(-c3ccc4c(c3)C(=O)CC4=O)ccc21 [Example 75]
4. COCCC(=O)C1C(=O)c2ccc(C(=O)c3ccc4c(c3)C(=O)C(C(=O)CCOC)C4=O)cc2C1=O (stereo not drawn) [Example 176]
5. O=C(c1ccc2c(c1)C(=O)C(C(=O)Nc1ccc(Cl)cc1Cl)C2=O)c1ccc2c(c1)C(=O)C(C(=O)Nc1ccc(Cl)cc1Cl)C2=O (stereo not drawn) [Example 80]

Reply:
1. 86
2. 73
3. 54
4. 21
5. 90

* * *

- measured_target: human PF4 (Homo sapiens)
- Construct: PF4 is a 70 amino acid, lysine-rich 7.8 kDa platelet-specific protein; made in house; host or cells: Escherichia coli BL21DE3 pLysS (pT7-7) and/or Drosophila S2 cells
- Sequence (P02776 32-101): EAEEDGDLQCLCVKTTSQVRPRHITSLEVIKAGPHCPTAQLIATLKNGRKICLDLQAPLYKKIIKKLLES
- experiment_summary: Inhibition of PF4 tetramer formation (BS3 cross-linking, SDS-PAGE)
- Format: biochemical
- setup_conditions: 1 μM inhibitor; read-out: % inhibition of PF4 tetramer formation at single concentration of inhibitor
Please mark Condition met if the recorded inhibition at 1 µM is equal to or greater than 10%, and Condition not met if it falls below.

compound	class
O=C(NC1CCS(=O)(=O)C1)C1C(=O)c2ccc(S(=O)(=O)c3ccc4c(c3)C(=O)C(C(=O)NC3CCS(=O)(=O)C3)C4=O)cc2C1=O (stereo not shown)	Condition met
COC(=O)[C@H]1CCCC[C@H]1C(=O)C1C(=O)c2ccc(S(=O)(=O)c3ccc4c(c3)C(=O)C(C(=O)[C@@H]3CCCC[C@@H]3C(=O)OC)C4=O)cc2C1=O (stereo partly shown)	Condition not met
CC(C)(C)OCC(=O)C1C(=O)c2ccc(S(=O)(=O)c3ccc4c(c3)C(=O)C(C(=O)COC(C)(C)C)C4=O)cc2C1=O (stereo not shown)	Condition met

Query: Decide: is the reported value of inhibition at 1 µM for CC(C)(C)OC(=O)NCCCC(=O)C1C(=O)c2ccc(C(=O)c3ccc4c(c3)C(=O)C(C(=O)CCCNC(=O)OC(C)(C)C)C4=O)cc2C1=O (stereo not shown) equal to or greater than 10%?
Reply: Condition met

Query: Please indicate if the recorded inhibition at 1 µM for COCCOCCNC(=O)C1C(=O)c2ccc(Oc3ccc4c(c3)C(=O)C(C(=O)NCCOCCOC)C4=O)cc2C1=O (stereo not shown) meets or exceeds 10%.
Reply: Condition met

Query: Evaluate NCC(=O)C1C(=O)c2ccc(C(=O)c3ccc4c(c3)C(=O)C(C(=O)CN)C4=O)cc2C1=O (stereo not shown) : inhibition at 1 µM at minimum 10%?
Reply: Condition met

Query: API: above_or_equal(metric=inhibition at 1 µM, cutoff=10%) for item COCCOCCNC(=O)C1C(=O)c2ccc(C#Cc3ccc4c(c3)C(=O)C(C(=O)NCCOCCOC)C4=O)cc2C1=O (stereo not shown)
Reply: Condition not met

Query: Given Cc1ccccc1C(=O)CCC(=O)C1C(=O)c2ccc(S(=O)(=O)c3ccc4c(c3)C(=O)C(C(=O)CCC(=O)c3ccccc3C)C4=O)cc2C1=O (stereo not shown) , state whether its inhibition at 1 µM is at least 10%.
Reply: Condition met

Query: Is inhibition at 1 µM for O=C(CCC(=O)C1C(=O)c2ccc(Oc3ccc4c(c3)C(=O)C(C(=O)CCC(=O)c3cccc(Cl)c3Cl)C4=O)cc2C1=O)c1cccc(Cl)c1Cl (stereo not shown) at or above 10%?
Reply: Condition met

Query: Say whether O=C(NCC1CCS(=O)(=O)C1)C1C(=O)c2ccc(S(=O)(=O)c3ccc4c(c3)C(=O)C(C(=O)NCC3CCS(=O)(=O)C3)C4=O)cc2C1=O (stereo not shown) shows inhibition at 1 µM of 10% or more.
Reply: Condition met

* * *

- experiment_summary: Mouse microsome stability
- Assay type: in vitro ADME
- setup_conditions: Mouse microsomes, compound conc = 0.5 μM, n = 1; read-out: Mouse microsome stability Half life t1/2
assay_endpoint: half-life at 0.5 μM

molecule	half-life at 0.5 μM
O=C(O)CCNC(=O)C1C(=O)c2ccc(C(=O)c3ccc4c(c3)C(=O)C(C(=O)NCCC(=O)O)C4=O)cc2C1=O (stereo not drawn)	> 3 h
CC(=O)C1C(=O)c2ccc(C(=O)c3ccc4c(c3)C(=O)C(C(C)=O)C4=O)cc2C1=O (stereo not drawn)	> 2.42 h

Now for another entry.
Query: Supply half-life at 0.5 μM value. Item: O=C(c1ccc2c(c1)C(=O)C(C(=O)NCCc1ccccc1)C2=O)c1ccc2c(c1)C(=O)C(C(=O)NCCc1ccccc1)C2=O (stereo not drawn)
Reply: > 2.42 h
